Kd values for the molecules below.
- tested.system: RpsL12 (ribosomal protein S12) (Lysinibacillus sphaericus)
- Construct: isolated ribosomal protein without rRNA; 426 bp gene in pET32a(+), purified from soluble fraction of E. coli BL21
- Sequence (B1HMZ3 whole entry): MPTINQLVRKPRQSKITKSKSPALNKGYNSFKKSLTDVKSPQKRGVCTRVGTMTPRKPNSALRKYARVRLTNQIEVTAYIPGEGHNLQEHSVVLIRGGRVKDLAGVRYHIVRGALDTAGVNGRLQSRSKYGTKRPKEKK
- measurement.notes: biochemical

Sample answers from the record:
CNC[C@@H]1CC[C@@H](N)[C@@H](O[C@H]2[C@H](O)[C@@H](O[C@H]3OC[C@](C)(O)[C@H](NC)[C@H]3O)[C@H](N)C[C@@H]2N)O1 ... 38500 nM
NC[C@@H]1O[C@H](O[C@H]2[C@@H](O)[C@H](O[C@@H]3[C@@H](O)[C@H](N)C[C@H](N)[C@H]3O[C@H]3O[C@H](CO)[C@@H](O)[C@H](O)[C@H]3N)O[C@@H]2CO)[C@H](N)[C@@H](O)[C@@H]1O ... 66.1 nM
NC[C@@H]1O[C@H](O[C@H]2[C@@H](O)[C@H](O[C@@H]3[C@@H](O)[C@H](N)C[C@H](N)[C@H]3O[C@H]3O[C@H](CN)[C@@H](O)[C@H](O)[C@H]3N)O[C@@H]2CO)[C@H](N)[C@@H](O)[C@@H]1O ... 14.9 nM
NCC[C@H](O)C(=O)N[C@@H]1C[C@H](N)[C@@H](O[C@H]2O[C@H](CN)[C@@H](O)[C@H](O)[C@H]2O)[C@H](O)[C@H]1O[C@H]1O[C@H](CO)[C@@H](O)[C@H](N)[C@H]1O ... 42.5 nM

Exam item: Provide Kd, system RpsL12 (ribosomal protein S12) (Lysinibacillus sphaericus), entry CN[C@@H]1[C@H](O)[C@H](NC)[C@H]2O[C@@]3(O)C(=O)C[C@@H](C)O[C@H]3O[C@@H]2[C@H]1O
Marked response: 63.9 nM
